Test system: HIV-1 FSS RNA
Test details: SPR binding to immobilised HIV-1 FSS RNA
Conditions: SPR, 1:1 Langmuir fit, average of four curves
Quantity: ka (M⁻¹ s⁻¹)
// return numeric value only (unit: M⁻¹ s⁻¹, not printed)

The following compounds have reported results that may help.
CCc1nc2ccccc2cc1C(=O)N(C)[C@@H](CCn1cc(C[C@@H](C(=O)N2C[C@H](O)C[C@H]2C(=O)N(C)[C@@H](Cc2ccccc2)C(=O)NCCCN)N(C)C(=O)c2cc3ccccc3nc2CC)nn1)C(=O)N1C[C@H](O)C[C@H]1C(=O)N(C)[C@@H](Cc1ccccc1)C(=O)NCCCN    14900
CN(C(=O)c1cnc2ccccc2c1)[C@@H](CCn1cc(C[C@@H](C(=O)N2C[C@H](O)C[C@H]2C(=O)N(C)[C@@H](Cc2ccccc2)C(N)=O)N(C)C(=O)c2cnc3ccccc3c2)nn1)C(=O)N1C[C@H](O)C[C@H]1C(=O)N(C)[C@@H](Cc1ccccc1)C(N)=O    4090
CCc1nc2ccccc2cc1C(=O)N(C)[C@@H](CCn1cc(C[C@@H](C(=O)N2CCC[C@H]2C(=O)N(C)[C@@H](Cc2ccccc2)C(N)=O)N(C)C(=O)c2cc3ccccc3nc2CC)nn1)C(=O)N1CCC[C@H]1C(=O)N(C)[C@@H](Cc1ccccc1)C(N)=O    1690

Alright, here's another compound for you.
Request: Would you kindly share the measured ka for CN(C(=O)c1cnc2ccccc2c1)[C@@H](CCn1cc(C[C@@H](C(=O)N2C[C@H](O)C[C@H]2C(=O)N(C)[C@@H](Cc2ccccc2)C(=O)NCCCN)N(C)C(=O)c2cnc3ccccc3c2)nn1)C(=O)N1C[C@H](O)C[C@H]1C(=O)N(C)[C@@H](Cc1ccccc1)C(=O)NCCCN ?
Result: 67400

* * *

Test target: HIV-1 FSS RNA
Test details: SPR binding to immobilised HIV-1 FSS RNA
Conditions: SPR, 1:1 Langmuir fit, average of four curves
Quantity: kd (s⁻¹)
Note: unit s⁻¹ is implicit; provide only the numeric part.

For orientation, consider the following solved cases.
CCc1nc2ccccc2cc1C(=O)N(C)[C@@H](CCn1cc(C[C@@H](C(=O)N2CCC[C@H]2C(=O)N(C)[C@@H](Cc2ccccc2)C(N)=O)N(C)C(=O)c2cc3ccccc3nc2CC)nn1)C(=O)N1CCC[C@H]1C(=O)N(C)[C@@H](Cc1ccccc1)C(N)=O    0.0207
CN(C(=O)c1cnc2ccccc2c1)[C@@H](CCn1cc(C[C@@H](C(=O)N2CCC[C@H]2C(=O)N(C)[C@@H](Cc2ccccc2)C(=O)NCCCN)N(C)C(=O)c2cnc3ccccc3c2)nn1)C(=O)N1CCC[C@H]1C(=O)N(C)[C@@H](Cc1ccccc1)C(=O)NCCCN    0.00226
CN(C(=O)c1cnc2ccccc2c1)[C@@H](CCn1cc(C[C@@H](C(=O)N2C[C@H](O)C[C@H]2C(=O)N(C)[C@@H](Cc2ccccc2)C(=O)NCCCN)N(C)C(=O)c2cnc3ccccc3c2)nn1)C(=O)N1C[C@H](O)C[C@H]1C(=O)N(C)[C@@H](Cc1ccccc1)C(=O)NCCCN    0.00542
CCc1nc2cc3ccccc3cc2cc1C(=O)N(C)[C@@H](CCn1cc(C[C@@H](C(=O)N2CCC[C@H]2C(=O)N(C)[C@@H](Cc2ccccc2)C(=O)NCCCN)N(C)C(=O)c2cc3cc4ccccc4cc3nc2CC)nn1)C(=O)N1CCC[C@H]1C(=O)N(C)[C@@H](Cc1ccccc1)C(=O)NCCCN    0.003
CN(C(=O)c1cnc2ccccc2c1)[C@@H](CCn1cc(C[C@@H](C(=O)N2C[C@H](O)C[C@H]2C(=O)N(C)[C@@H](Cc2ccccc2)C(N)=O)N(C)C(=O)c2cnc3ccccc3c2)nn1)C(=O)N1C[C@H](O)C[C@H]1C(=O)N(C)[C@@H](Cc1ccccc1)C(N)=O    0.00541
CCc1nc2ccccc2cc1C(=O)N(C)[C@@H](CCn1cc(C[C@@H](C(=O)N2CCC[C@H]2C(=O)N(C)[C@@H](Cc2ccccc2)C(=O)NCCCN)N(C)C(=O)c2cc3ccccc3nc2CC)nn1)C(=O)N1CCC[C@H]1C(=O)N(C)[C@@H](Cc1ccccc1)C(=O)NCCCN    0.0237

Request: Could you share which kd value was measured for CCc1nc2ccccc2cc1C(=O)N(C)[C@@H](CCn1cc(C[C@@H](C(=O)N2C[C@H](O)C[C@H]2C(=O)N(C)[C@@H](Cc2ccccc2)C(=O)NCCCN)N(C)C(=O)c2cc3ccccc3nc2CC)nn1)C(=O)N1C[C@H](O)C[C@H]1C(=O)N(C)[C@@H](Cc1ccccc1)C(=O)NCCCN ?
Result: 0.0068
